# measurement_target: human GPR119 (Homo sapiens)
# assay_remarks: Measurement of GPR119 signaling (cAMP assay) in cells stably transfected with human GPR119
# Type: cell-based
# measurement_parameters: cAMP stimulation; read-out: GPR119 HumC EC50
pEC50: −log10 of the molar value.
# reported pEC50; entries follow

smiles_text | measurement_target | pEC50
CCC1(OC(=O)N2CCC([C@H]3C[C@H]3CCOc3ccc(CC(=O)N4CCC4)c(F)c3)CC2)CC1 | human GPR119 (Homo sapiens) | 8.57
CC(C)c1noc(N2CCC([C@H]3C[C@H]3CCOc3cc(F)c(CC(=O)N(C)C)cc3F)CC2)n1 | human GPR119 (Homo sapiens) | 9.22
COCc1noc(N2CCC([C@H]3C[C@H]3CCOc3ccc(CC(=O)N4CCC4)c(Cl)c3)CC2)n1 | human GPR119 (Homo sapiens) | 8.59

---

# measurement_target: human GPR119 (Homo sapiens)
# Sequence (Q8TDV5 1-308 limits assumed): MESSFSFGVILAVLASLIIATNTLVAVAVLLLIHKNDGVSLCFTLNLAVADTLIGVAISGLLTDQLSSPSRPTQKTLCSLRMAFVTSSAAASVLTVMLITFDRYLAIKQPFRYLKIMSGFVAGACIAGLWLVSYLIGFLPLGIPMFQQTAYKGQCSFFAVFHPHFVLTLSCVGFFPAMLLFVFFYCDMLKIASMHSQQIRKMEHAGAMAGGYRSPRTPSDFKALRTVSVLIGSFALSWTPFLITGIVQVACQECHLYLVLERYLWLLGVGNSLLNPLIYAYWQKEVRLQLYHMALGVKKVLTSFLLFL
# assay_remarks: Measurement of GPR119 signaling (cAMP assay) in cells stably transfected with human GPR119
# Assay type: cell-based
# measurement_parameters: table column; cAMP stimulation, human GPR119; read-out: GPR119 Human EC50
hey, just use satisfied if measured EC50 is less than 3 nM, otherwise not satisfied

compound | measurement_target | assigned_class
COCc1noc(N2CCC([C@H]3C[C@H]3CCOc3ccc(S(C)(=O)=O)cc3)CC2)n1 | human GPR119 (Homo sapiens) | not satisfied
CC(C)c1noc(N2CCC([C@H]3C[C@H]3CCOc3ccc(CC(=O)N4CCn5c(nnc5C5CC5)C4)c(F)c3)CC2)n1 | human GPR119 (Homo sapiens) | not satisfied
CC(C)c1noc(N2CCC([C@H]3C[C@H]3CCOc3ccc(CC(=O)NCC(F)(F)F)c(F)c3)CC2)n1 | human GPR119 (Homo sapiens) | not satisfied
CC(C)c1noc(N2CCC([C@H]3C[C@H]3CCOc3ccc(CC(=O)N(C)Cc4cncs4)c(F)c3)CC2)n1 | human GPR119 (Homo sapiens) | satisfied
COCc1noc(N2CCC([C@H]3C[C@H]3CCOc3ccc(-n4cncn4)cc3)CC2)n1 | human GPR119 (Homo sapiens) | not satisfied
CS(=O)(=O)c1ccc(OCC[C@@H]2C[C@@H]2C2CCN(c3noc(C4(C(F)(F)F)CC4)n3)CC2)nc1 | human GPR119 (Homo sapiens) | satisfied
COC1CN(C(=O)Cc2ccc(OCC[C@@H]3C[C@@H]3C3CCN(c4nc(C(C)C)no4)CC3)cc2)C1 | human GPR119 (Homo sapiens) | not satisfied
CC(C)c1noc(N2CCC([C@H]3C[C@H]3CCOc3cc(F)c(C(=O)C4CC4)c(F)c3)CC2)n1 | human GPR119 (Homo sapiens) | satisfied
CC(C)c1noc(N2CCC([C@H]3C[C@H]3CCOc3ccc(CC(=O)NC4CCC(F)(F)C4)c(F)c3)CC2)n1 (stereo partly shown) | human GPR119 (Homo sapiens) | satisfied
COCCc1noc(N2CCC([C@H]3C[C@H]3CCOc3ncc(-n4cnnn4)cc3C)CC2)n1 | human GPR119 (Homo sapiens) | satisfied
CC(C)COC(=O)N1CCC([C@H]2C[C@H]2CCOc2ccc(S(C)(=O)=O)cn2)CC1 | human GPR119 (Homo sapiens) | not satisfied
O=C(CC1CCCC1)N1CCC([C@H]2C[C@H]2CCOc2ccc(-n3cnnn3)cc2)CC1 | human GPR119 (Homo sapiens) | not satisfied
Cc1cc(CC(=O)N2CC(C)(O)C2)cnc1OCC[C@@H]1C[C@@H]1C1CCN(c2nc(C(C)C)no2)CC1 | human GPR119 (Homo sapiens) | not satisfied
CC(C)c1noc(N2CCC([C@H]3C[C@H]3CCOc3ccc(CC(=O)N4C[C@@H](F)[C@H](F)C4)cc3)CC2)n1 | human GPR119 (Homo sapiens) | satisfied
CS(=O)(=O)c1ccc(OCC[C@@H]2C[C@@H]2C2CCN(c3nnc(C4CCCC4)o3)CC2)nc1 | human GPR119 (Homo sapiens) | not satisfied
CC(C)c1noc(N2CCC([C@H]3C[C@H]3CCOc3ccc(CC(=O)N4CC(F)(F)C4)cc3)CC2)n1 | human GPR119 (Homo sapiens) | satisfied
